For each of the binders below, state its log10(EC50).
Molecular target: T1, rhNav1.7α + β1-β2-β3 (rhesus Nav1.7α co-expressed with Navβ1, Navβ2 and Navβ3 on cells) (rhesus monkey (α subunit); β subunits …)
T1 construct: also called rhNav1.7-beta1-beta2-beta3; CHO FlpIn rhNav1.7α + β1-β2-β3
Assay: binding FACS, CHO FlpIn cells
Record value = log10 of EC50 given in nM.

Any idea what its log10(EC50) is? The binder is F010302313 (VHH, also called F0103387G04(L11V, A12V, K33R, R39Q, S50Y, S56D, T60A, G73A, W78V, S79Y, T83R, V89L, N93R, N100cI)) VHH: EVQLVESGGGVVQPGGSLRLSCAASGPVFNINRMAWYRQAPGKQRELVAYVTPTGDISYADSVKGRFTISRDASKRVYLQMNSLRPEDTALYYCRALLQPDSYSITRTYWGQGTLVTVSS
1.53

Any idea what its log10(EC50) is? The binder is F010302325 (VHH, also called F0103387G04(L11V, A12V, K33R, R39Q, S50Y, S56D, T60A, G73R, W78V, S79Y, T83R, V89L, N93R)) VHH: EVQLVESGGGVVQPGGSLRLSCAASGPVFNINRMAWYRQAPGKQRELVAYVTPTGDISYADSVKGRFTISRDRSKRVYLQMNSLRPEDTALYYCRALLQPDSYSNTRTYWGQGTLVTVSS
0.94

Any idea what its log10(EC50) is? The binder is F010302386 (VHH, also called F0103387G04(L11V, A12V, K33R, R39Q, S50Y, S56D, T60A, D72Q, W78V, S79Y, T83R, V89L, N93R, D99S, N100cI)) VHH: EVQLVESGGGVVQPGGSLRLSCAASGPVFNINRMAWYRQAPGKQRELVAYVTPTGDISYADSVKGRFTISRQGSKRVYLQMNSLRPEDTALYYCRALLQPSSYSITRTYWGQGTLVTVSS
0.69

Any idea what its log10(EC50) is? The binder is F010301866 (VHH, also called F0103387G04(L11V, A12V, K33R, R39Q, S50Y, S56D, T60A, R76N, W78V, S79Y, T83R, V89L, N93R)) VHH: EVQLVESGGGVVQPGGSLRLSCAASGPVFNINRMAWYRQAPGKQRELVAYVTPTGDISYADSVKGRFTISRDGSKNVYLQMNSLRPEDTALYYCRALLQPDSYSNTRTYWGQGTLVTVSS
1.26

Any idea what its log10(EC50) is? The binder is F010302384 (VHH, also called F0103387G04(L11V, A12V, K33R, R39Q, S50Y, S56D, T60A, D72G, W78V, S79Y, T83R, V89L, N93R, D99S, N100cI)) VHH: EVQLVESGGGVVQPGGSLRLSCAASGPVFNINRMAWYRQAPGKQRELVAYVTPTGDISYADSVKGRFTISRGGSKRVYLQMNSLRPEDTALYYCRALLQPSSYSITRTYWGQGTLVTVSS
0.63

Any idea what its log10(EC50) is? The binder is F010301841 (VHH, also called F0103387G04(L11V, A12V, K33R, R39Q, S50Y, S56D, T83R, V89L, N93R)) VHH: EVQLVESGGGVVQPGGSLRLSCAASGPVFNINRMAWYRQAPGKQRELVAYVTPTGDISYTDSVKGRFTISRDGSKRWSLQMNSLRPEDTALYYCRALLQPDSYSNTRTYWGQGTLVTVSS
0.88

Any idea what its log10(EC50) is? The binder is F010301655 (VHH, also called F0103275B05(L11V, S33R, R39Q, S50Y, S56D, R76N, T83R, V89L, N93R)) VHH: EVQLVESGGGVVQPGGSLRLSCAASGSIFNINRMAWYRQAPGKQRELVAYSTNGGDTNYADSVKGRFTISRDNAKNVYLQMNSLRPEDTALYYCRALLQPSIYDISRTYWGQGTLVTVSS
1.41

Any idea what its log10(EC50) is? The binder is F010302327 (VHH, also called F0103387G04(L11V, A12V, K33R, R39Q, S50Y, S56D, T60A, G73A, W78V, S79Y, T83R, V89L, N93R, D99R)) VHH: EVQLVESGGGVVQPGGSLRLSCAASGPVFNINRMAWYRQAPGKQRELVAYVTPTGDISYADSVKGRFTISRDASKRVYLQMNSLRPEDTALYYCRALLQPRSYSNTRTYWGQGTLVTVSS
1.97

Any idea what its log10(EC50) is? The binder is F010302330 (VHH, also called F0103387G04(L11V, A12V, K33R, R39Q, S50Y, S56D, T60A, G73A, W78V, S79Y, T83R, V89L, N93R, S100R)) VHH: EVQLVESGGGVVQPGGSLRLSCAASGPVFNINRMAWYRQAPGKQRELVAYVTPTGDISYADSVKGRFTISRDASKRVYLQMNSLRPEDTALYYCRALLQPDRYSNTRTYWGQGTLVTVSS
2.30

Any idea what its log10(EC50) is? The binder is F010301844 (VHH, also called F0103387G04(L11V, A12V, K33R, R39Q, S50Y, S56D, R76N, T83R, V89L, N93R)) VHH: EVQLVESGGGVVQPGGSLRLSCAASGPVFNINRMAWYRQAPGKQRELVAYVTPTGDISYTDSVKGRFTISRDGSKNWSLQMNSLRPEDTALYYCRALLQPDSYSNTRTYWGQGTLVTVSS
1.04

Any idea what its log10(EC50) is? The binder is F010301865 (VHH, also called F0103387G04(L11V, A12V, K33R, R39Q, S50Y, S56D, T60A, W78V, S79Y, T83R, V89L, N93R)) VHH: EVQLVESGGGVVQPGGSLRLSCAASGPVFNINRMAWYRQAPGKQRELVAYVTPTGDISYADSVKGRFTISRDGSKRVYLQMNSLRPEDTALYYCRALLQPDSYSNTRTYWGQGTLVTVSA
1.04

Any idea what its log10(EC50) is? The binder is F010302317 (VHH, also called F0103387G04(L11V, A12V, K33R, R39Q, S50Y, S56D, T60A, G73R, W78V, S79Y, T83R, V89L, N93R, D99R, N100cI)-FLAG3-HIS6) VHH: EVQLVESGGGVVQPGGSLRLSCAASGPVFNINRMAWYRQAPGKQRELVAYVTPTGDISYADSVKGRFTISRDRSKRVYLQMNSLRPEDTALYYCRALLQPRSYSITRTYWGQGTLVTVSS
1.28

Any idea what its log10(EC50) is? The binder is F010301652 (VHH, also called F0103275B05(L11V, S33R, S50Y, S56D, R76N, T83R, V89L, N93R)) VHH: EVQLVESGGGVVQPGGSLRLSCAASGSIFNINRMAWYRRAPGKQRELVAYSTNGGDTNYADSVKGRFTISRDNAKNVYLQMNSLRPEDTALYYCRALLQPSIYDISRTYWGQGTLVTVSS
1.38

Any idea what its log10(EC50) is? The binder is F010302331 (VHH, also called F0103387G04(L11V, A12V, K33R, R39Q, S50Y, S56D, T60A, G73R, W78V, S79Y, T83R, V89L, N93R, S100R)) VHH: EVQLVESGGGVVQPGGSLRLSCAASGPVFNINRMAWYRQAPGKQRELVAYVTPTGDISYADSVKGRFTISRDRSKRVYLQMNSLRPEDTALYYCRALLQPDRYSNTRTYWGQGTLVTVSS
1.38

Any idea what its log10(EC50) is? The binder is F010301848 (VHH, also called F0103387G04(L11V, A12V, K33R, R39Q, S50Y, S56D, T60A, G73N, W78V, S79Y, T83R, V89L, N93R)) VHH: EVQLVESGGGVVQPGGSLRLSCAASGPVFNINRMAWYRQAPGKQRELVAYVTPTGDISYADSVKGRFTISRDNSKRVYLQMNSLRPEDTALYYCRALLQPDSYSNTRTYWGQGTLVTVSS
1.28

These measurements were taken from patent US20240002497A1.
